- target.of.assay: HMM-mfMSR1 (monkey MSR1 extracellular domain)
- Sequence (as listed by the source): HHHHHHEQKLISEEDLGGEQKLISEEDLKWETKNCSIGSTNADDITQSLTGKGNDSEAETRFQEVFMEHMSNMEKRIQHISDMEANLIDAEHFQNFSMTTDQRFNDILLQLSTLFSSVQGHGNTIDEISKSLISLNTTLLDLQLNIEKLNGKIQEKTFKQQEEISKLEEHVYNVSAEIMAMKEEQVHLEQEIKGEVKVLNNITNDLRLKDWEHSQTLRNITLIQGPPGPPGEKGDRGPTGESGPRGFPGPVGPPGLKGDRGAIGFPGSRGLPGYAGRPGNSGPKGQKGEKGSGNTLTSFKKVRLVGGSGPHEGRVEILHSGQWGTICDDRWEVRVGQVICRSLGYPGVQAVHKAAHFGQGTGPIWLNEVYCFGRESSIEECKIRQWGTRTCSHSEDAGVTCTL
- experiment: Biacore surface plasmon resonance binding kinetics of anti-MSR1 mAbs, antibody-capture format
- experimental.parameters: 25° C.; analyte HMM-mfMSR1; * = no dissociation observed, kd manually fixed at 1.00E−05; NB = no binding observed
As shown below, each of these molecules has a reported kd value.
Could you give me the number in s⁻¹? Just the number is fine.

// kd value for H1H27739P-N297Q: anti-MSR1 antibody "made with an N297Q single point mutation in human Fcγ portion" (antibody, V domains shown) VH: EVQLVESGGGLVQPGGSLRLSCTASGFTFSSYAMSWVRQAPGKGLEWVSAISGTGSSTYFTDSVKGRFAISRDNSKNTLYLQMNSLRAEDTAVYYCAKDGEWLSTVTLFDYWGQGTLVTVSS VL: EIVMTQSPATLSVSPGERATLSCRASQSVSSNLAWYQQKPGQAPRLLIYGASTRATGIPARFSGSGSGTDFTLTISSLQSEDFALYYCQQYFIWPPHPTFGPGTKVDIKR : 0.000144

Just so you know, measured kd for H1H27734P-N297Q: one of "Twelve anti-MSR1 antibodies"; "made with an N297Q single point mutation in human Fcγ portion" (antibody, V domains shown) VH: EVQLVESRGGLVQPGGSLRLSCAASGFTFSSYAMSWVRQAPGKGLEWVSAISGSGGSTFYADSVKGRFTISRDNSKNTVYLQMNSLRAEDTAVYYCAKALVLRFLEWLGDYWGQGTLVTVSS VL: DIQMTQSPSTLSASVGDRVTITCRASQSISSWLAWFQQKPGKAPKLLIYKASSLESGVPSRFSGSGSGTEFTLTISSLQPDDFATYYCQQYKSYWTFGQGTKVEIKR came out at 0.00291
